Molecular target: T1, CD71 apical domain (UniProt P02786 189-383, limits assumed)
T1 construct: domain: Apical domain
T1 sequence (P02786 189-383 limits assumed): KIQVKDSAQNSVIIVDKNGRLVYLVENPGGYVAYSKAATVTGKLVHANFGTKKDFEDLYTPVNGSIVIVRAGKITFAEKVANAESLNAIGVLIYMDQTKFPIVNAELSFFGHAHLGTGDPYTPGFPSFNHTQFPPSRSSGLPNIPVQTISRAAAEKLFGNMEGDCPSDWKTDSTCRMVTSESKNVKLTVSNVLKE
Experiment: solution ELISA
measured-quantity: Apical domain, RLU (RLU)
# unit: RLU | format: bare number

Solved entries (count: 3):
SEQ ID NO 103 (designed binder, FN3 domain) MLPAPKNLVVSRVTEDSARLSWTAPDAAFDSFHIVYHEPRPSGEAIWLHVPGSERSYDLTGLKPGTEYEVGIVSVKGGDLSVPLVAFFTT	4.14e+06
SEQ ID NO 168 (designed binder, FN3 domain) MLPAPKNLVVSRVTEDSARLSWTAPDAAFDSFYIAYAEPRPDGEAILLDVPGSERSYDLTGLKPGTEYSVLIHGVKGGLLSSPLSAIFTT	6.86e+06
SEQ ID NO 124 (designed binder, FN3 domain) MLPAPKNLVVSRVTEDSARLSWTAPDAAFDSFYIAYAEPRPDGEAIQLHVPGSERSYDLTGLKPGTEYSVLIHGVKGGLLSSPLLASFTT	5.46e+06

Now consider the entry below.
[in] I'd like to know its Apical domain, RLU. The binder in question is SEQ ID NO 152 (designed binder, FN3 domain) MLPAPKNLVVSRVTEDSARLSWTAPDAAFDSFYIAYAEPRPDGEAITLDVPGSERSYDLTGLKPGTEYSVLIHGVKGGLLSSPLYAFFTT
[out] 4.96e+06
